From: ChEMBL document CHEMBL1152663

Would you kindly list EC50 for each of these molecules?
System under test: ATP-dependent translocase ABCB1 (Homo sapiens)
Assay overview: Inhibition of ABCB1 overexpressed in human CCRF-CEM/VCR1000 cell assessed as inhibition of daunomycin efflux after 30 mins by FACS analysis
Answers are plain numbers, in nM.

CN1CCN(C(C(=O)Nc2ccc(NC(=O)c3ccc4ccccc4c3)cc2C(=O)c2ccccc2)c2ccccc2)CC1 (racemic); 40
CN1CCN(C(C(=O)Nc2ccc(NS(C)(=O)=O)cc2C(=O)c2ccccc2)c2ccccc2)CC1 (racemic); 15500
CN1CCN(C(C(=O)Nc2ccc(NS(=O)(=O)c3ccccc3)cc2C(=O)c2ccccc2)c2ccccc2)CC1 (racemic); 890
CN1CCN(C(C(=O)Nc2ccc(NC(=O)Cc3ccccc3)cc2C(=O)c2ccccc2)c2ccccc2)CC1 (racemic); 360
CCC(=O)Nc1ccc(NC(=O)C(c2ccccc2)N2CCN(C)CC2)c(C(=O)c2ccccc2)c1 (racemic); 3300
CN1CCN(CC(=O)Nc2ccc(NC(=O)c3ccc4ccccc4c3)cc2C(=O)c2ccccc2)CC1; 480
CN1CCN(C(C(=O)Nc2ccc(NC(=O)C(C)(C)C)cc2C(=O)c2ccccc2)c2ccccc2)CC1 (racemic); 390
CN1CCN(C(C(=O)Nc2ccc(NC(=O)c3cccc4ccccc34)cc2C(=O)c2ccccc2)c2ccccc2)CC1 (racemic); 230
CN1CCN(C(C(=O)Nc2ccc(N(S(=O)(=O)c3ccccc3)S(=O)(=O)c3ccccc3)cc2C(=O)c2ccccc2)c2ccccc2)CC1 (racemic); 40
CN1CCN(C(C(=O)Nc2ccc(NC(=O)CCc3ccccc3)cc2C(=O)c2ccccc2)c2ccccc2)CC1 (racemic); 60

Below are 3 molecules. Give each one its EC50.
1. CC(C)N(C(=O)Nc1ccc(NC(=O)C(c2ccccc2)N2CCN(C)CC2)c(C(=O)c2ccccc2)c1)C(C)C (stereo unspecified)
2. CC(=O)Nc1ccc(NC(=O)C(c2ccccc2)N2CCN(C)CC2)c(C(=O)c2ccccc2)c1 (racemic)
3. CC1CCN(C(=O)Nc2ccc(NC(=O)C(c3ccccc3)N3CCN(C)CC3)c(C(=O)c3ccccc3)c2)CC1 (stereo unspecified)

Reply:
1. 460
2. 6290
3. 4970

# batch: return EC50 for each of the 3 molecules below
1. CN1CCN(CC(=O)Nc2ccc(NC(=O)CCc3ccccc3)cc2C(=O)c2ccccc2)CC1
2. CN1CCN(C(C(=O)Nc2ccc(NC(=O)c3cccnc3)cc2C(=O)c2ccccc2)c2ccccc2)CC1 (stereo unspecified)
3. CN1CCN(C(C(=O)Nc2ccc(NC(=O)c3ccccc3)cc2C(=O)c2ccccc2)c2ccccc2)CC1 (racemic)

Reply:
2230
5120
240

----------
Test system: Plasmodium falciparum
Assay overview: Antimalarial activity against Plasmodium falciparum Dd2 […] cells after 72 hrs by [3H]hypoxanthine incorporation assay
Type: functional, organism-based
Exercise: state measured IC50 for each of the molecules provided.
Answers are plain numbers, in µM.

Below are worked cases with known answers.
CN1CCN(C(C(=O)Nc2ccc(NC(=O)Cc3ccccc3)cc2C(=O)c2ccccc2)c2ccccc2)CC1 (racemic); 2
CCC(=O)Nc1ccc(NC(=O)C(c2ccccc2)N2CCN(C)CC2)c(C(=O)c2ccccc2)c1 (racemic); 7.19
CC(=O)Nc1ccc(NC(=O)CN2CCN(C)CC2)c(C(=O)c2ccccc2)c1; 9.45

Count: 4. Required value per item: IC50.
1. CC(=O)Nc1ccc(NC(=O)C(c2ccccc2)N2CCN(C)CC2)c(C(=O)c2ccccc2)c1 (racemic)
2. CN1CCN(C(C(=O)Nc2ccc(NC(=O)c3cccc4ccccc34)cc2C(=O)c2ccccc2)c2ccccc2)CC1 (racemic)
3. CN1CCN(C(C(=O)Nc2ccc(NC(=O)C(C)(C)C)cc2C(=O)c2ccccc2)c2ccccc2)CC1 (racemic)
4. CN1CCN(C(C(=O)Nc2ccc(NC(=O)c3ccccc3)cc2C(=O)c2ccccc2)c2ccccc2)CC1 (racemic)

Reply:
9.72
0.93
3.04
1.61

----------
Tested on: Trypanosoma brucei brucei
Assay overview: Antitrypanosomal activity against Trypanosoma brucei brucei TC221 after 48 hrs by alamar blue assay
Assay type: functional, organism-based
Assay context: TC221, 48 h
I'd be grateful if you could share measured IC50 for these entries.
Numbers only, in µM.

CC(=O)Nc1ccc(NC(=O)C(c2ccccc2)N2CCN(C)CC2)c(C(=O)c2ccccc2)c1 (racemic); 9.05
CN1CCN(C(C(=O)Nc2ccc(NC(=O)c3cccnc3)cc2C(=O)c2ccccc2)c2ccccc2)CC1 (centres undefined); 5.06
CN1CCN(C(C(=O)Nc2ccc(NS(=O)(=O)c3ccccc3)cc2C(=O)c2ccccc2)c2ccccc2)CC1 (racemic); 5.38

Attention now shifts to the item below.
Ask: Param item = CN1CCN(C(C(=O)Nc2ccc(NC(=O)CCc3ccccc3)cc2C(=O)c2ccccc2)c2ccccc2)CC1 (racemic) ; retrieve measured IC50.
Reply: 3.27

----------
Would you mind telling me the reported IC50 of each entry?
Tested on: Trypanosoma brucei brucei
Assay overview: Antitrypanosomal activity against Trypanosoma brucei brucei TC221 after 48 hrs by alamar blue assay
Format: functional, organism-based
Assay context: TC221, 48 h
One number for each entry, in µM.

CN1CCN(CC(=O)Nc2ccc(NC(=O)c3ccccc3)cc2C(=O)c2ccccc2)CC1; 49.4
CN1CCN(C(C(=O)Nc2ccc(NS(C)(=O)=O)cc2C(=O)c2ccccc2)c2ccccc2)CC1 (racemic); 5.58
CN1CCN(CC(=O)Nc2ccc(NC(=O)c3ccc4ccccc4c3)cc2C(=O)c2ccccc2)CC1; 0.81

Hi team, please reply with IC50 for each item in this list.
1. CN1CCN(C(C(=O)Nc2ccc(NC(=O)Cc3ccccc3)cc2C(=O)c2ccccc2)c2ccccc2)CC1 (racemic)
2. CN1CCN(C(C(=O)Nc2ccc(NC(=O)C(C)(C)C)cc2C(=O)c2ccccc2)c2ccccc2)CC1 (racemic)
3. CN1CCN(C(C(=O)Nc2ccc(NC(=O)c3ccccc3)cc2C(=O)c2ccccc2)c2ccccc2)CC1 (racemic)

Reply:
[3.64, 11.4, 3.28]

Go through the items and report each one's IC50.
1. CN1CCN(CC(=O)Nc2ccc(NC(=O)CCc3ccccc3)cc2C(=O)c2ccccc2)CC1
2. CN1CCN(C(C(=O)Nc2ccc(NC(=O)c3ccc4ccccc4c3)cc2C(=O)c2ccccc2)c2ccccc2)CC1 (racemic)

Reply:
1: 13.9; 2: 1.98

----------
System under test: Multidrug resistance protein Pgh1 (Plasmodium falciparum)
Sequence (whole entry): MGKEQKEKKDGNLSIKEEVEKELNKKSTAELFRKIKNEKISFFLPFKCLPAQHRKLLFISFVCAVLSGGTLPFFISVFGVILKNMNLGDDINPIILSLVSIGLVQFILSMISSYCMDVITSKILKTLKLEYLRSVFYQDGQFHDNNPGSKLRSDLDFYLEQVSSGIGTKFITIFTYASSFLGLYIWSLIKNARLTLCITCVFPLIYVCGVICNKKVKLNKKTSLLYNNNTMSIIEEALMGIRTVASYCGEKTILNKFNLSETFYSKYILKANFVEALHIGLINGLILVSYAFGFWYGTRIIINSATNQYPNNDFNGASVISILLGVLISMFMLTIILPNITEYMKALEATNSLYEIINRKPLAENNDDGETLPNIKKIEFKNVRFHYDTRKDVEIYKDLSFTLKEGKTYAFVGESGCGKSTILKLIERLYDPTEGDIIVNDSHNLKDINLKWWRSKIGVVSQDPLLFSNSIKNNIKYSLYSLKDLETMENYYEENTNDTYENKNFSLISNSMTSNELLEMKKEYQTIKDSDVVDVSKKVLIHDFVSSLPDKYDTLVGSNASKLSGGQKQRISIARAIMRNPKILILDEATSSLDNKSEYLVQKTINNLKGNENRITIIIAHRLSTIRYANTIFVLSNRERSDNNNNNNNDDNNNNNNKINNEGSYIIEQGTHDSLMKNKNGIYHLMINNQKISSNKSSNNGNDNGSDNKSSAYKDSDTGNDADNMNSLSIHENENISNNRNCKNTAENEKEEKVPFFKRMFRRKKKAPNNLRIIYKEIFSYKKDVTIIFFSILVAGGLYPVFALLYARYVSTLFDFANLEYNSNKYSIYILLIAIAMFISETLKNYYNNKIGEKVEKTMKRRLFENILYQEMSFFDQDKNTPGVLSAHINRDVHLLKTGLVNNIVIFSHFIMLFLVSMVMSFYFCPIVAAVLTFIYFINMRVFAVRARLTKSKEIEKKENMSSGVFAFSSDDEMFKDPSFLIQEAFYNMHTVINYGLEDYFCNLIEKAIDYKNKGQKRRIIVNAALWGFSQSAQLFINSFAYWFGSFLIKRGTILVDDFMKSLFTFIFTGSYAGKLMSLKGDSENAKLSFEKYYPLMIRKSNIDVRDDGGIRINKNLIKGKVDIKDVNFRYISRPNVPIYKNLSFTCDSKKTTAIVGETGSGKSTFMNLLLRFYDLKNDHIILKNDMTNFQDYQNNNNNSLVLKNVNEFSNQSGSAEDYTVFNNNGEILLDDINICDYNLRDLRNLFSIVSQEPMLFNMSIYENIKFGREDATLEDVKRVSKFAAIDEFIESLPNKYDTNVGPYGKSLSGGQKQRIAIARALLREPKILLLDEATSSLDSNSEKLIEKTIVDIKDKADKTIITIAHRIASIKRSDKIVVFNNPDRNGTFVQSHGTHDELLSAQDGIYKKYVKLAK
Assay overview: Inhibition of Plasmodium PGH1-mediated fluorochrome accumulation into parasite digestive vacuole at […] concentration
Active and inactive are the calls of the source. The calls are words filed in the database; no cut-off is given here.
Measured endpoint: inhibition

# annotated cases, reported inhibition shown
CN1CCN(CC(=O)Nc2ccc(NC(=O)c3ccccc3)cc2C(=O)c2ccccc2)CC1; inactive
CN1CCN(C(C(=O)Nc2ccc(NC(=O)CCc3ccccc3)cc2C(=O)c2ccccc2)c2ccccc2)CC1 (racemic); inactive
CC(=O)Nc1ccc(NC(=O)CN2CCN(C)CC2)c(C(=O)c2ccccc2)c1; inactive
CN1CCN(CC(=O)Nc2ccc(NC(=O)c3ccc4ccccc4c3)cc2C(=O)c2ccccc2)CC1; inactive
CN1CCN(C(C(=O)Nc2ccc(NS(=O)(=O)c3ccccc3)cc2C(=O)c2ccccc2)c2ccccc2)CC1 (racemic); inactive
CN1CCN(C(C(=O)Nc2ccc(NC(=O)Cc3ccccc3)cc2C(=O)c2ccccc2)c2ccccc2)CC1 (racemic); inactive
CN1CCN(C(C(=O)Nc2ccc(N(S(=O)(=O)c3ccccc3)S(=O)(=O)c3ccccc3)cc2C(=O)c2ccccc2)c2ccccc2)CC1 (racemic); inactive

Ask: Can you look up the measured inhibition of CC(=O)Nc1ccc(NC(=O)C(c2ccccc2)N2CCN(C)CC2)c(C(=O)c2ccccc2)c1 (racemic) for me?
Reply: inactive
